- conditions: rat, in vivo, sc, 1 mg/kg
Bridge positions count the residues as written; N and C are the ends. Square brackets hold non-standard residues; d marks the D form. Peptide text beside a SMILES is read from it. * marks the point of attachment. Piperazin2one(3S-Bu,6R-CO) = CCCC[C@@H]1NC[C@H](C(=O)*)NC1=O; X1 = N=C(N)NCCC[C@H]1C(=O)N[C@@H](C(N)=O)CN1*; Heptanoyl = CCCCCCC(=O)*; Nle = CCCC[C@H](N)C(=O)O
assay_metric: half-life (min)
Response body: numeric value in min, unit text excluded.

[
  {
    "molecule": "CCCC[C@@H]1NC[C@H](C(=O)N[C@H]2CSSC[C@@H](C(=O)N[C@@H](Cc3ccc(O)cc3)C(=O)N3C[C@H](C(N)=O)NC(=O)[C@@H]3CCCNC(=N)N)NC(=O)[C@H](CO)NC(=O)[C@H]([C@@H](C)CC)NC(=O)[C@H](CCCNC(=N)N)NC(=O)[C@H](CC(=O)O)NC(=O)[C@H](CCCC)NC(=O)[C@H](CCCNC(=N)N)NC(=O)CNC(=O)CNC(=O)[C@H](Cc3ccccc3)NC(=O)[C@H](Cc3c[nH]cn3)NC2=O)NC1=O [1-18] ({Piperazin2one(3S-Bu,6R-CO)}-CHFGGR[Nle]DRISCY-X1; disulfide 1-12)",
    "half-life / min": 12
  }
]

Report half-life for CCCCCCC(=O)N[C@H]1CSSC[C@@H](C(=O)N[C@@H](Cc2ccc(O)cc2)C(=O)N2C[C@H](C(N)=O)NC(=O)[C@@H]2CCCNC(=N)N)NC(=O)[C@H](CO)NC(=O)[C@H]([C@@H](C)CC)NC(=O)[C@H](CCCNC(=N)N)NC(=O)[C@H](CC(=O)O)NC(=O)[C@H](CCCC)NC(=O)[C@H](CCCNC(=N)N)NC(=O)CNC(=O)CNC(=O)[C@H](Cc2ccccc2)NC(=O)[C@H](Cc2c[nH]cn2)NC1=O [1-63] (Heptanoyl-CHFGGR[Nle]DRISCY-X1; disulfide 1-12) please. 12

* * *

- conditions: rat, in vivo, iv, 2 mg/kg
Bridge positions count the residues as written; N and C are the ends. Square brackets hold non-standard residues; d marks the D form. Peptide text beside a SMILES is read from it. * marks the point of attachment. Piperazin2one(3S-Bu,6R-CO) = CCCC[C@@H]1NC[C@H](C(=O)*)NC1=O; X1 = N=C(N)NCCC[C@H]1C(=O)N[C@@H](C(N)=O)CN1*; Nle = CCCC[C@H](N)C(=O)O
assay_metric: Vd (L/kg)
Unit L/kg implied. Number only.

Please report the recorded Vd for CCCC[C@@H]1NC[C@H](C(=O)N[C@H]2CSSC[C@@H](C(=O)N[C@@H](Cc3ccc(O)cc3)C(=O)N3C[C@H](C(N)=O)NC(=O)[C@@H]3CCCNC(=N)N)NC(=O)[C@H](CO)NC(=O)[C@H]([C@@H](C)CC)NC(=O)[C@H](CCCNC(=N)N)NC(=O)[C@H](CC(=O)O)NC(=O)[C@H](CCCC)NC(=O)[C@H](CCCNC(=N)N)NC(=O)CNC(=O)CNC(=O)[C@@H](Cc3ccccc3)NC(=O)[C@H](Cc3c[nH]cn3)NC2=O)NC1=O [1-39] ({Piperazin2one(3S-Bu,6R-CO)}-CH[dF]GGR[Nle]DRISCY-X1; disulfide 1-12) . 2.8

* * *

Entries and their clearance values follow.
- conditions: rat, in vivo, iv, 2 mg/kg
Bridge positions count the residues as written; N and C are the ends. Square brackets hold non-standard residues; d marks the D form. Peptide text beside a SMILES is read from it. * marks the point of attachment. Piperazin2one(3S-Bu,6R-CO) = CCCC[C@@H]1NC[C@H](C(=O)*)NC1=O; X1 = N=C(N)NCCC[C@H]1C(=O)N[C@@H](C(N)=O)CN1*; X3 = CC(C)C[C@@H]1NC[C@H](C(=O)*)NC1=O; Nle = CCCC[C@H](N)C(=O)O; Orn = NCCC[C@H](N)C(=O)O
Just the number please, in L/h/kg, no unit attached.

The examples below pair each entry with its known result.
[
  {
    "molecule": "CCCC[C@@H]1NC[C@H](C(=O)N[C@H]2CSSC[C@@H](C(=O)N[C@@H](Cc3ccc(O)cc3)C(=O)N3C[C@H](C(N)=O)NC(=O)[C@@H]3CCCNC(=N)N)NC(=O)[C@H](CO)NC(=O)[C@H]([C@@H](C)CC)NC(=O)[C@H](CCCNC(=N)N)NC(=O)[C@H](CC(=O)O)NC(=O)[C@H](CCCC)NC(=O)[C@H](CCCNC(=N)N)NC(=O)CNC(=O)CNC(=O)[C@H](Cc3ccccc3)NC(=O)[C@@H](Cc3c[nH]cn3)NC2=O)NC1=O [1-28] ({Piperazin2one(3S-Bu,6R-CO)}-C[dH]FGGR[Nle]DRISCY-X1; disulfide 1-12)",
    "clearance (L/h/kg)": 3.06
  },
  {
    "molecule": "CCCC[C@@H]1NC[C@H](C(=O)N[C@H]2CSSC[C@@H](C(=O)N[C@@H](Cc3ccc(O)cc3)C(=O)N3C[C@H](C(N)=O)NC(=O)[C@@H]3CCCNC(=N)N)NC(=O)[C@H](CO)NC(=O)[C@H]([C@@H](C)CC)NC(=O)[C@H](CCCNC(=N)N)NC(=O)[C@H](CC(=O)O)NC(=O)[C@H](CCCC)NC(=O)[C@H](CCCN)NC(=O)CNC(=O)CNC(=O)[C@H](Cc3ccccc3)NC(=O)[C@H](Cc3c[nH]cn3)NC2=O)NC1=O [1-54] ({Piperazin2one(3S-Bu,6R-CO)}-CHFGG[Orn][Nle]DRISCY-X1; disulfide 1-12)",
    "clearance (L/h/kg)": 3.96
  },
  {
    "molecule": "CCCC[C@@H]1NC[C@H](C(=O)N[C@H]2CSSC[C@@H](C(=O)N[C@@H](Cc3ccc(O)cc3)C(=O)N3C[C@H](C(N)=O)NC(=O)[C@@H]3CCCNC(=N)N)NC(=O)[C@H](CO)NC(=O)[C@H]([C@@H](C)CC)NC(=O)[C@H](CCCNC(=N)N)NC(=O)[C@@H](CC(=O)O)NC(=O)[C@H](CCCC)NC(=O)[C@H](CCCNC(=N)N)NC(=O)CNC(=O)CNC(=O)[C@H](Cc3ccccc3)NC(=O)[C@H](Cc3c[nH]cn3)NC2=O)NC1=O [1-44] ({Piperazin2one(3S-Bu,6R-CO)}-CHFGGR[Nle][dD]RISCY-X1; disulfide 1-12)",
    "clearance (L/h/kg)": 0.9
  }
]

What value of clearance has been reported for the following molecule? CCCC[C@@H]1NC(=O)[C@H](CCCNC(=N)N)NC(=O)CNC(=O)CNC(=O)[C@H](Cc2ccccc2)NC(=O)[C@H](Cc2c[nH]cn2)NC(=O)[C@@H](NC(=O)[C@H]2CN[C@@H](CC(C)C)C(=O)N2)CSSC[C@@H](C(=O)N[C@@H](Cc2ccc(O)cc2)C(=O)N2C[C@H](C(N)=O)NC(=O)[C@@H]2CCCNC(=N)N)NC(=O)[C@H](CO)NC(=O)[C@H]([C@@H](C)CC)NC(=O)[C@H](CCCNC(=N)N)NC(=O)[C@H](CC(=O)O)NC1=O [1-51] (X3-CHFGGR[Nle]DRISCY-X1; disulfide 1-12) 5.64

* * *

- conditions: rat, in vivo, sc, 5 mg/kg
Bridge positions count the residues as written; N and C are the ends. Square brackets hold non-standard residues; d marks the D form. Peptide text beside a SMILES is read from it. * marks the point of attachment. Piperazin2one(3S-Bu,6R-CO) = CCCC[C@@H]1NC[C@H](C(=O)*)NC1=O; X1 = N=C(N)NCCC[C@H]1C(=O)N[C@@H](C(N)=O)CN1*; Nle = CCCC[C@H](N)C(=O)O; Orn = NCCC[C@H](N)C(=O)O
Here the recorded Cmax is given for each entry.
Only the number, expressed in nM, is required.

[
  {
    "compound": "CCCC[C@@H]1NC[C@H](C(=O)N[C@H]2CSSC[C@@H](C(=O)N[C@@H](Cc3ccc(O)cc3)C(=O)N3C[C@H](C(N)=O)NC(=O)[C@@H]3CCCNC(=N)N)NC(=O)[C@H](CO)NC(=O)[C@H]([C@@H](C)CC)NC(=O)[C@H](CCCN)NC(=O)[C@H](CC(=O)O)NC(=O)[C@H](CCCC)NC(=O)[C@H](CCCNC(=N)N)NC(=O)CNC(=O)CNC(=O)[C@H](Cc3ccccc3)NC(=O)[C@H](Cc3c[nH]cn3)NC2=O)NC1=O [1-55] ({Piperazin2one(3S-Bu,6R-CO)}-CHFGGR[Nle]D[Orn]ISCY-X1; disulfide 1-12)",
    "assay_metric": "Cmax",
    "measure_unit": "nM",
    "result": 250
  }
]

Next compound, please.
Value lookup for Cmax; key = CCCC[C@@H]1NC[C@H](C(=O)N[C@H]2CSSC[C@@H](C(=O)N[C@@H](Cc3ccc(O)cc3)C(=O)N3C[C@H](C(N)=O)NC(=O)[C@@H]3CCCNC(=N)N)NC(=O)[C@H](CO)NC(=O)[C@H]([C@@H](C)CC)NC(=O)[C@H](CCCNC(=N)N)NC(=O)[C@H](CC(=O)O)NC(=O)[C@H](CCCC)NC(=O)[C@H](CCCNC(=N)N)NC(=O)CNC(=O)CNC(=O)[C@H](Cc3ccccc3)NC(=O)[C@H](Cc3c[nH]cn3)NC2=O)NC1=O [1-18] ({Piperazin2one(3S-Bu,6R-CO)}-CHFGGR[Nle]DRISCY-X1; disulfide 1-12) 131

All values here come from patent US8580747B2.
